Assay: protein stability index of a GFP-peptide fusion (GPS, HEK-293T) (PSI 1-6); higher = more stable;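 further: 24-mer peptide tiles fused after GFP, lentivirally expressed, FACS-sorted into six equal bins by GFP/DsRed ratio, decoded by Illumina sequencing, PSI is the read-weighted mean bin number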
Settings: treatment: MLN4924 1 uM, 8 h; c terminus: a fixed tail appended
Category | rule: reported protein stability index within range, see c1: < 3; c2: ≥ 3 and < 5; c3: ≥ 5

residue sequence | group label
QHPDMSVTKVVVHKETEITPEDGE [EPB41L3] | c3
AEEKEQLLHNDEYQETMVESTFMY [USP39] | c2
LEGYISNLRKQLETLSGDRVRLDS [KRT71] | c2
ASSGLTVEVDAPKSQDLAKIMADI [KRT18] | c2

Exercise: read the entry WYDMFRDAAAILLDEQNKRPCRKF [ZMAT5] and state which class it falls under.
c1

Class (by measured protein stability index) for AGGSSGTTARERPCVRPGVSGSPV [FBF1]
c2

Band for the recorded protein stability index of NDINILRVSNPGRLAELLLLETDA [GADD45A] ?
c1

Note: place this sequence into its band. Item: VTQNSTAEPSRFSSSDSDFDDEEP [FCHO1]
c3

Band for the recorded protein stability index of YKGHTDVVRYLLEQRADPNAKAHC [FEM1B] ?
c2

GET /class?item= RRKACQACRFTKCLRVGMLKEGVR [ESRRA]
c1

For the record LNRSESDIRYLLGYVSQQGGQRST [FEM1B] , report the class its protein stability index corresponds to.
c2

Please report the category associated with KSNVLKLKTADWRVFLFQAPSKEE [PSD2] , nothing else.
c1

====

Assay: protein stability index of a GFP-peptide fusion (GPS, HEK-293T) (PSI 1-6); higher = more stable
Conditions: treatment: DMSO; c terminus: a fixed tail appended
Output schema: class label derived from protein stability index. Mapping: band A = under 3, band B = from 3 up to 4, band C = 4 and over

Sample answers from the record:
residue sequence | group label
FVQVKGNFARLQTCISELRMLQRE [M1AP] | band A
KFSPDGKYVVSGFDVDHGICIMDA [WDR88] | band A
LHVNGESLEMDSDEDDSEELEEDD [EHMT1] | band C

# bin label for EEEGPSTFPDLESEFQAALSRKVA [MAGEA3]
band C

Kindly state the category for this sequence: KNELERDSKIVVPPLPGKALKRQL [SNX12]
band C

# classify by protein stability index band: GSTLIFYKYCDHENAAFKDVALVL [TOR1AIP2]
band A

Field: class (protein stability index) — entry: FGHLINGAIAVFVYASDKEWIRFD [PTGFR]
band B

Form: Item = PELTAALRDIRAQYESIAAKNLQE [PRPH] ; Class = ?
band B

For LRVEFAAENYLSGGGPGDGGGADT [FBXO33] , which protein stability index bin applies?
band C

Lab note: sort QVYLSHTAWTEACQVEVRLLLAYN [INTS4] into the matching protein stability index band.
band B

Hi there! Could you help me figure out the category for SKPCDLHCTTVDGQRQLMVPARDG [ADAMTSL2] please?
band C

Which protein stability index band matches VIHRALDREQVSSYNITVTATDGG [PCDHGA10] ?
band B

Which band does PRGRLDLATQSLTVETCRALGKLL [LRRC45] fall in?
band A

====

Experiment: protein stability index of a GFP-peptide fusion (GPS, HEK-293T) (PSI 1-6); higher = more stable
Conditions: treatment: DMSO; c terminus: a fixed tail appended
Recorded protein stability index determines the group label, using group A: < 3; group B: ≥ 3 and < 4; group C: ≥ 4

Example cases with answers are listed next.
residue sequence | group label
PCSFVCWYRPMYKAFRSDSSFNFF [SCAMP3] | group A
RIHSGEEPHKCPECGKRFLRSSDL [ZNF449] | group B
DIYKQECSSRPLQKGSHPMCKEHE [TRIM63] | group C

State the class of the sequence shown: YTYEKLLWTTSRVLKVLSVCSSNK [CTNNB1]
group A

Into which bin does this sequence go? DDRVLSSLVRDTIARVHGTFGAAA [POP5]
group A

====

Assay: protein stability index of a GFP-peptide fusion (GPS, HEK-293T) (PSI 1-6); higher = more stable
Details: treatment: DMSO; c terminus: a fixed tail appended
# cutoff 4 applies to protein stability index; >= gives Y, < gives N

residue sequence | group label
GTPKDHDSPENGADSFESSDSLLQ [ETS2] | Y
PRNSCITCPQCHRSLILDDRGLRG [TRIM9] | N
LRRWLRANLAASGGYAIAVVLLQG [TSPAN10] | N
RPRQRQRVYPKCTWLTTPKSTWPR [TCF25] | N

Now look at this one.
State whether the measured protein stability index reaches 4, counting equality as reaching it, for IRQVLQGLDYLHSKCKIIHTDIKP [SRPK2]
N

====

Assay: protein stability index of a GFP-peptide fusion (GPS, HEK-293T) (PSI 1-6); higher = more stable
Conditions: treatment: MLN4924 1 uM, 8 h; c terminus: a fixed tail appended
// false (0) strictly below 4 in protein stability index; true (1) otherwise

residue sequence | group label
LMTSKPAEVVKILQTMLRQSAFLH [INTS4] | false (0)
ETENIIAANHWVLPAAEFHGLWDS [TRIP13] | false (0)
VPSSGYGAVTASKHSNSPPLVTPP [SMTNL2] | true (1)
GGGVATSPMLIVFHGKYSTINPLW [GLT8D2] | false (0)
TLWDVFGANKEVQELLERGLLQLD [RSAD1] | false (0)

Could you now consider this next sequence?
I'd appreciate it if you could say whether HQPPQAGAGDVVLLQRELAQEDSL [LYSMD4] has protein stability index at least equal to 4.
true (1)

====

Experiment: protein stability index of a GFP-peptide fusion (GPS, HEK-293T) (PSI 1-6); higher = more stable
Conditions: treatment: MLN4924 1 uM, 8 h; c terminus: a fixed tail appended
metric: protein stability index

residue sequence | protein stability index
QQLAAEPVPTGFFNMWGFGRVSKQ [WDR41] | 3.49
KNELERDSKIVVPPLPGKALKRQL [SNX12] | 4.56
NKPAVKLLYNRSNNKYSYTSNSDD [KCTD10] | 4.03
QEQRLGIRISMSHEEEPLGTAGPL [GMPPB] | 4.79

So what does the record say about protein stability index for APAMYDDESAIDFSAYIDSMAAVP [CEBPD] ?
3.62

Looking for the measured protein stability index of SNPGPVPGSSSGPVLGSSSGAGHG [SPAG8] , can you help?
4.7

Quick check: protein stability index of GGDHRYVNNYTNSFGGEWSAPDTM [TRIM29] ?
3.51

Consider the sequence RTVNALEIELQAQHNLRDSLENTL [KRT34] and give its measured protein stability index.
3.64

====

Assay: protein stability index of a GFP-peptide fusion (GPS, HEK-293T) (PSI 1-6); higher = more stable
Settings: treatment: MLN4924 1 uM, 8 h; c terminus: a fixed tail appended
metric: protein stability index

Name the recorded protein stability index for VSEAGGSGRLSASWEPLSGPSTPS [FCHO1] .
4.74

Can you share its protein stability index? I mean this sequence: CEEWSFFHAYYYCFITLTTIGFGD [KCNK9]
2.96

Suppose we examine the sequence HFSSIPDAFWWAVVSMTTVGYGDM [KCNA1] ; what protein stability index value has been reported?
3.12

====

Test: protein stability index of a GFP-peptide fusion (GPS, HEK-293T) (PSI 1-6); higher = more stable
Settings: treatment: DMSO; c terminus: a fixed tail appended
Record Met whenever protein stability index is at 5 or higher; record Not met when lower.

Recorded results for 2 sequences are shown here.
residue sequence | group label
LSTFSVPYFLFQHWATGYSKSSHP [SOAT1] | Not met
AKKLPPVQESQSERLQAAGTDSAG [ELOA2] | Met

Reported protein stability index reaches at least 5 for HWALRVTPGLGVVAVLLLFLVVRE [SPNS1] ?
Not met

Does protein stability index meet or surpass 5 for DGDIPNIPAEENASTSTPSSTLVR [FAM189A2] ?
Met

Hi team, for NKALWENNKLKLQQKLVIDTVTEV [CBY2] , is the recorded protein stability index at or above 5?
Not met

Check the entry RGRAREREQLQAEASERFAAGYIQ [HES6] : does protein stability index equal or exceed 5?
Not met

# check: protein stability index of VPETIHDELQQSFQKSHNSLQRWE [PRIM1] is greater than or equal to 5
Not met

Is the recorded value of protein stability index equal to or greater than 5 for this sequence? RFYRSPEVLLGTPYDLAIDMWSLG [DYRK1B]
Not met

Given the entry WKIALLFVAFALCMFCLYSFMPLV [SLC35F2] , answer whether its protein stability index meets or surpasses 5.
Not met

Please tell me: is the sequence TNFVVQVSVFIGVLIDLWKITKVM [CLPTM1] at or over 5 in terms of protein stability index?
Not met
